Target: PDGFRβ (Homo sapiens)
Construct: endogenous in cells
Sequence (P09619 33-1106): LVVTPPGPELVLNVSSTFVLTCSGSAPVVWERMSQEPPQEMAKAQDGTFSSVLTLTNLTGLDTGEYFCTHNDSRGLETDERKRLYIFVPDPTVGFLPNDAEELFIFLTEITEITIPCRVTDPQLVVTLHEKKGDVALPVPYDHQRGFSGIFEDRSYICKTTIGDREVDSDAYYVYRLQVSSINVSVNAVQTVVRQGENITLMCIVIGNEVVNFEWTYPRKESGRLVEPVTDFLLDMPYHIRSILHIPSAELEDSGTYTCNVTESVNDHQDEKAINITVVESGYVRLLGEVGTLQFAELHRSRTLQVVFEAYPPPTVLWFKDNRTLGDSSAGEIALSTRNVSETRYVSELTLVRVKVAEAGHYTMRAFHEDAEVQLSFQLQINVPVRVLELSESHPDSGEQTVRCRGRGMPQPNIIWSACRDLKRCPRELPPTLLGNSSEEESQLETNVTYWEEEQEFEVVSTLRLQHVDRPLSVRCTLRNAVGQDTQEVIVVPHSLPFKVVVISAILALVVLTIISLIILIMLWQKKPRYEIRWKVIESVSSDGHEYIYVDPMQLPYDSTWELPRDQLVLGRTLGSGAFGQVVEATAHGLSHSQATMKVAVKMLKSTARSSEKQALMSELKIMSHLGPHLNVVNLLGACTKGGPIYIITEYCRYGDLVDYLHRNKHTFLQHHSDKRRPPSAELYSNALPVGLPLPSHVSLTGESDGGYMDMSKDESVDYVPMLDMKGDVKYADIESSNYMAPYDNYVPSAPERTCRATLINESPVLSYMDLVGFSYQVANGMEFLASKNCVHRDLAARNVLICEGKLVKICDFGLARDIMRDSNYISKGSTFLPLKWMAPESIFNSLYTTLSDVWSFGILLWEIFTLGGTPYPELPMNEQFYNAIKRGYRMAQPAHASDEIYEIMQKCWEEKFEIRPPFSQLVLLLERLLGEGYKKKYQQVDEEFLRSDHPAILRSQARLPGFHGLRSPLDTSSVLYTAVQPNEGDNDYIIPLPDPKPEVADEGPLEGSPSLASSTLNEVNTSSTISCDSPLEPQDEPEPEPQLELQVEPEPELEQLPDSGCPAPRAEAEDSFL
Assay: Test (b) in vitro phospho-Tyr751 PDGFRβ ELISA assay in MG63 osteosarcoma cells
Conditions: MG63 osteosarcoma cells stimulated with PDGFBB, read-out: IC50 versus phospho-Tyr751 formation in PDGFRβ
pIC50: −log10 of the molar value.
Here the recorded pIC50 is given for each entry.

>  <test smiles>
CCn1cc(NC(=O)Cc2ccc(Oc3ccnc4cc(OC)c(C#N)cc34)cc2OC)cn1

>  <pIC50>
~8.70

$$$$
>  <test smiles>
CCn1cc(NC(=O)Cc2ccc(Oc3ccnc4cc(OC)c(C#N)cc34)cc2)cn1

>  <pIC50>
~8.70

$$$$
>  <test smiles>
CCn1cc(NC(=O)Cc2ccc(Oc3ccnc4ccccc34)cc2OC)cn1

>  <pIC50>
~7.70

$$$$
>  <test smiles>
COc1cc(Oc2ccnc3ccc(F)cc23)ccc1CC(=O)Nc1cc(C)[nH]n1

>  <pIC50>
~8.00

$$$$
>  <test smiles>
CNC(=O)c1cc2c(Oc3ccc(CC(=O)Nc4noc(C)c4C)c(OC)c3)ccnc2cc1OC

>  <pIC50>
~8.30

$$$$
>  <test smiles>
COc1cc(Oc2ccnc3ccc(F)cc23)ccc1CC(=O)Nc1n[nH]c(C)c1C

>  <pIC50>
~8.00

$$$$
>  <test smiles>
CCc1c[nH]nc1NC(=O)Cc1ccc(Oc2ccnc3cc(OC)c(OC)cc23)cc1OC

>  <pIC50>
~8.30

$$$$
>  <test smiles>
CCn1cc(NC(=O)Cc2ccc(Oc3ccnc4cc(OC)c(C(=O)N(C)C)cc34)cc2)cn1

>  <pIC50>
~8.52

$$$$
